Test system: K-562 leukemia
Assay: NCI tumour cell line growth inhibition, 48 h
# TGI annotations
Output spec: scalar in µM, unitless text.

{"compound": "Cc1cc(N(CCC#N)S(=O)(=O)c2ccccc2)ccc1C=Nc1ccc(C(=O)O)cc1", "unitLabel": "µM", "TGI": 17.9}

get_value(item= Cc1cc2nc3c(C#N)c(C)c(CCCl)c(Cl)n3c2cc1C , readout=TGI) returns 6.63

get_value(item= O=C1OC(OC/C(Br)=C(\Br)COC2OC(=O)C(Cl)=C2Cl)C(Cl)=C1Cl (stereo not given) , readout=TGI) returns 5.55

get_value(item= CCCCCCCCCCCC(=O)N(CCCCCCCCC)CC(O)C(O)C(OC1OC(CO)C(O)C(O)C1O)C(O)CO (stereo not given) , readout=TGI) returns 50.2

get_value(item= CCCCCCc1ccc(CCCCCCCC(=O)O)o1 , readout=TGI) returns 71.6

----------
Tested on: HCT-116 colon
Test: NCI tumour cell line growth inhibition, 48 h
quantity: TGI (µM)
Output spec: scalar in µM, unitless text.

{"compound": "O=C(CCCCCNC(=O)c1ccc(Cl)cc1)NO", "testedOn": "HCT-116 colon", "resultValue": 10.7}

Bench note, HCT-116 colon: Cc1ccsc1C(NC(=O)c1ccccc1)c1cc(Cl)c2cccnc2c1O (stereo unspecified) , TGI reads 13.1

Bench note, HCT-116 colon: NS(=O)(=O)c1ccc(-n2nc3c(c2-c2cccs2)Cc2ccccc2-3)cc1 , TGI reads 22.7

Bench note, HCT-116 colon: Cc1cc(I)cc(CN(C)CCCN2CCC(C)CC2)c1O , TGI reads 22.1

Bench note, HCT-116 colon: Cc1cc(OCc2ccc(C(F)(F)F)cc2)c2c(c1)C(=O)C=C(NCCN1CCCC1)C2=O , TGI reads 3.9

----------
Tested on: HT29 colon
Assay: NCI tumour cell line growth inhibition, 48 h
quantity: TGI

{"compound": "Cc1ccc(C)n1-c1ccccc1C1C=Cn2c(=O)oc3c(OC(C)C)c(OC(C)C)c(O)c1c32 (stereo not given)", "resultValue": "> 100 µM"}
{"compound": "COc1cc2c3c(n(C)c(=O)c2cc1OC)-c1cc2c(cc1/C3=C\\CCCCl)OCO2", "resultValue": "> 100 µM"}
{"compound": "COc1cc2nc(-c3cccs3)nc(N3CCN(c4ccccc4)CC3)c2cc1OC", "resultValue": "> 100 µM"}
{"compound": "COc1cc(OC)c(/C=C/C(=O)c2c(OC)cc(OC)cc2OC)c(OC)c1", "resultValue": "2.1 µM"}
{"compound": "COC(=O)Nc1nc2ccc(C(=O)c3cccc(I)c3)cc2[nH]1", "resultValue": "26 µM"}

get_value(item= CC1=C(CCC(C)CO)O[C@H]2C[C@H]3[C@@H]4CC[C@H]5C[C@@H](O)CC[C@]5(C)[C@H]4CC(=O)[C@]3(C)[C@@H]12 (stereo not given in full) , readout=TGI) returns 71.8 µM

get_value(item= O=C1CCC2(O)c3ccccc3C2Cc2ccccc21 (stereo not given) , readout=TGI) returns > 100 µM

get_value(item= CC1CN(c2cc3c(cc2F)c(=O)c(C(=O)O)cn3-c2ccc(N3CCN(C)CC3)cn2)CC(C)N1 (stereo not given) , readout=TGI) returns > 100 µM

get_value(item= O=S(=O)(O)c1cc(S(=O)(=O)O)c2cc(N=Nc3ccc(N=Nc4ccc(/C=C/c5ccc(N=[N+]([O-])c6ccc(/C=C/c7ccc(N=Nc8ccc(N=Nc9ccc%10cc(S(=O)(=O)O)cc(S(=O)(=O)O)c%10c9)cc8)cc7S(=O)(=O)O)c(S(=O)(=O)O)c6)cc5S(=O)(=O)O)c(S(=O)(=O)O)c4)cc3)ccc2c1 , readout=TGI) returns > 100 µM

get_value(item= Clc1cnc(Nc2ccc(OCCN3CCCC3)cc2)nc1NCc1ccco1 , readout=TGI) returns 9.18 µM

get_value(item= Cc1cc(N(CCC#N)CCC#N)ccc1/C(N=Nc1ccc(C(=O)O)cc1)=N\NC(=O)c1ccccc1 , readout=TGI) returns 41.2 µM

get_value(item= CC(=O)NC1C(OCc2ccccc2)OC(CO)C(O)C1OC(C)C(=O)NC(C(=O)NC(CCC(=O)NCCCNc1ccc([N+](=O)[O-])c2[nH]c3ccccc3c(=O)c12)C(N)=O)C(C)C (stereo not given) , readout=TGI) returns > 100 µM

get_value(item= CCOC(=O)C1=C(Nc2ccc(OC)cc2)C(N)=NC1=N , readout=TGI) returns > 100 µM

get_value(item= CC1C(c2ccccc2)N(C)C(c2ccccc2)C(C)C1(O)c1ccccc1 (stereo not given) , readout=TGI) returns > 100 µM

get_value(item= COC(=O)/C=C1\C(CO[Si](C)(C)C(C)(C)C)OC(n2cc(C)c(=O)n(C)c2=O)C1O[Si](C)(C)C(C)(C)C (stereo not given) , readout=TGI) returns > 100 µM

----------
System: NCI-H226 lung
Experiment: NCI tumour cell line growth inhibition, 48 h
quantity: TGI (µM)
Output spec: scalar in µM, unitless text.

get_value(item= NC1(c2cc3ccccc3s2)CCCCCC1 , readout=TGI) returns 38.4

get_value(item= Cc1ccc2ccccc2c1CSc1nc(N)nc2c1ncn2CC(C)C , readout=TGI) returns 72.7

get_value(item= CCN1CCN(C(=O)[C@]23CC[C@@H](C)[C@H](C)[C@@H]2C2=CC[C@@H]4[C@@]5(C)CCC(=O)C(C)(C)[C@@H]5CC[C@@]4(C)[C@]2(C)CC3)CC1 , readout=TGI) returns 7.01

get_value(item= COCC(C#N)NC1CC(OC2CC(O)(C(=O)CO)Cc3c(O)c4c(c(O)c32)C(=O)c2c(OC)cccc2C4=O)OC(C)C1O (centres undefined) , readout=TGI) returns 0.117

----------
System: ACHN renal
Experiment: NCI tumour cell line growth inhibition, 48 h
quantity: TGI (µM)
Output spec: scalar in µM, unitless text.

Worked set:
{"compound": "CCN1CCN(C(=O)[C@]23CC[C@@H](C)[C@H](C)[C@@H]2C2=CC[C@@H]4[C@@]5(C)CCC(=O)C(C)(C)[C@@H]5CC[C@@]4(C)[C@]2(C)CC3)CC1", "testedOn": "ACHN renal", "resultValue": 4.38}
{"compound": "COc1ccc2c3ccnc(C(F)(F)F)c3n(CCCCN)c2c1", "testedOn": "ACHN renal", "resultValue": 16.1}

get_value(item= C=CCc1c(O)c(C(=O)/C=C/c2ccc(Cl)cc2)c(OC)c2ccoc12 , readout=TGI) returns 6.17

get_value(item= CC1=CC2(C)/C=C(C)/C=C\CC(O)/C=C3/C=CC(=C4C(=O)OC2(CC1C)C4=O)OC3 (stereo not drawn) , readout=TGI) returns 2.67

get_value(item= C[C@]12CC[C@H]3[C@@H](CC[C@]4(O)C[C@@H](O)CC[C@]34C=O)[C@@]1(O)CC[C@@H]2C1=CC(=O)OC1 , readout=TGI) returns 1.49

----------
Test system: SR leukemia
Experiment: NCI tumour cell line growth inhibition, 48 h
quantity: TGI (µM)
Output spec: scalar in µM, unitless text.

Worked set:
{"compound": "COC(=O)C1=C(C)NC(C)=C(C(=O)OC)C1c1cccc(/[N+]([O-])=C/c2ccccc2)c1", "quantity": "TGI", "resultValue": 62}
{"compound": "CCC[CH2][Sn]1([CH2]CCC)[O]C(=O)c2cccc([N+](=O)[O-])c2C(=O)[O]1", "quantity": "TGI", "resultValue": 1.97}
{"compound": "O=C1C=CC2C3C(=O)N(c4ccccc4)C(=O)C3C1N2Cc1ccccc1 (stereo not given)", "quantity": "TGI", "resultValue": 7}
{"compound": "O=[N+]([O-])c1ccc2c(c1)C(N1CCN(CCO)CC1)Cc1ccc(F)cc1S2 (stereo not given)", "quantity": "TGI", "resultValue": 20.6}

get_value(item= CCC(=O)OCOc1ccc(/C=C2\CCC(CN(C)C)C2=O)cc1 (stereo not given) , readout=TGI) returns 9.25

get_value(item= COc1cc2[nH]c3c(c2cc1OC)CCN[C@@]31CC[C@@]2(CC3c4c(cc(OC)c(O)c42)CCN3C)C[C@@H]1OC (stereo not given in full) , readout=TGI) returns 36.6

get_value(item= Oc1ccc(-c2nc3cc(C(F)(F)F)ccc3s2)cc1 , readout=TGI) returns 35.2

----------
System: KM12 colon
Experiment: NCI tumour cell line growth inhibition, 48 h; in the data active means GI50 below about 0.43 µM; inactive means the rest
Form entry, call: pick from 1 (yes) for active, 0 (no) for inactive

Task: Identify the outcome logged in this assay for the compound shown: COc1ccc2c3ccnc(C(F)(F)F)c3n(CCCCN)c2c1
Output: 0 (no)

Task: Identify the outcome logged in this assay for the compound shown: CCC(=O)NC1=C(Cl)C(=O)C(NC(=O)CC)=C(Cl)C1=O
Output: 0 (no)

Task: Identify the outcome logged in this assay for the compound shown: C=CCc1c(O)c(C(=O)/C=C/c2ccc(Cl)cc2)c(OC)c2ccoc12
Output: 0 (no)

Task: Identify the outcome logged in this assay for the compound shown: Cc1[nH]nc(C(F)(F)F)c1Cc1sc2c(c1C(=O)N1C[C@](C)(O)CO1)c(=O)n(C)c(=O)n2C(C)C
Output: 0 (no)

Task: Identify the outcome logged in this assay for the compound shown: CC(=O)C1=C(C)N(Cc2ccccc2)C2(O)C=CC(=O)C3=C(O)c4ccccc4C(=O)C312 (stereo not given)
Output: 0 (no)

Task: Identify the outcome logged in this assay for the compound shown: COC(=O)Nc1nc2ccc(C(=O)c3cccc(I)c3)cc2[nH]1
Output: 1 (yes)

Task: Identify the outcome logged in this assay for the compound shown: CC(=O)/C=C(/C)[O-].CC(=O)/C=C(/C)[O-].CC(=O)[CH-]C(C)=O.CC(=O)[CH-]C(C)=O.[Zr+4]
Output: 0 (no)
